Would you kindly list growth for each of these molecules?
- System: SW-620 colon
- procedure_details: NCI-60 one-dose screen, 48 h (100 = growth as untreated, 0 = no growth, -100 = all killed)
- condition_context: 10 µM unless noted
About 83,000 compounds went through this panel and 20% of them were active in at least one assay; those are over-represented in the sample as a whole.
Numbers only, in %.

{"smiles_text": "C=C1C(=O)O[C@H]2[C@H]1CC/C(Cn1cc(CNC(=O)/C=C/c3c[nH]c4ccccc34)nn1)=C\\CC[C@@]1(C)O[C@@H]21", "growth (%)": 49.9}
{"smiles_text": "CC(=O)Nc1ccc(S(=O)(=O)n2ccc(-c3ccc4c(c3)CCC(C)(C)O4)n2)cc1", "growth (%)": 82.5}
{"smiles_text": "COc1ccc(Nc2nc(N)nc3c2CCN(Cc2ccc(OC)cc2OC)C3=O)cc1", "growth (%)": 80}
{"smiles_text": "O=C(C1=Cc2cc3ccccc3n2Cc2cnnn21)c1ccccc1", "growth (%)": 28.5}

Give measured growth for every item shown.
1. NC(=O)c1c(NC(=S)Nc2ccc(OC(F)(F)F)cc2)sc2c1CCC1(C2)OCCO1
2. CCOC(=O)c1ccc2c(c1)c1c(C)c3cccnc3c(C)c1n2C
3. O=Nc1c(-c2cccc([N+](=O)[O-])c2)nc2ncccn12
4. O=C(Nc1cccc(-n2cc(-c3ccncc3)c(-c3ccc(Cl)c(O)c3)n2)c1)Nc1ccc(Cl)c(Cl)c1
5. CN(C)CCCN(c1nc(C(Cl)(Cl)Cl)ns1)c1nc(C(Cl)(Cl)Cl)ns1

[92.9, 34, 18.2, 24.5, 35.1]

---

- System: RXF 393 renal
- procedure_details: NCI-60 one-dose screen, 48 h
- condition_context: 10 µM unless noted
Compounds without any hit were thinned out: in the full panel of roughly 83,000, 20% have a hit. Calls of active or inactive are those of the source. Rule for the calls: active = growth percent below 10; inactive = the rest.
Choose the fitting class; nothing outside TRUE = active, FALSE = inactive is accepted.

Some entries whose results are on file:
{"compound": "COc1ccc(C2C(C#N)=C(N)Oc3c2ccc2ccccc32)cc1 (stereo not drawn)", "assigned_class": "FALSE"}
{"compound": "COc1ccc(-c2cnnn2-c2nonc2-n2cccc2)cc1OC", "assigned_class": "FALSE"}
{"compound": "CCCCCc1cc[n+](CC(=O)c2ccc([N+](=O)[O-])cc2)cc1", "assigned_class": "FALSE"}

What classification did CCCCC(CC)OC(=O)C(Br)CC (stereo not drawn) end up with in this test? FALSE

In this assay, the call recorded for `O=C1/C(=C/c2ccccc2)CN(C(=O)CCN2CCC(=NO)CC2)C/C1=C\c1ccccc1` was what? TRUE

---

- Test system: SK-MEL-28 melanoma
- procedure_details: NCI-60 one-dose screen, 48 h (100 = growth as untreated, 0 = no growth, -100 = all killed)
- condition_context: 10 µM unless noted
This is part of a sample that, as a whole, favours compounds with a hit. Of some 83,000 tested, about 20% had one in any assay. Activity calls are given as the source filed them. The calls were made as follows: active = growth percent below 10; inactive = the rest.
Provide the recorded growth for the entries that follow.

The cases that follow already have their growth on record.
{"molecule": "COc1ccc(-c2[nH]nc(N)c2-c2cc(OC)c3c(c2)OCO3)cc1", "growth": "60% (inactive)"}
{"molecule": "Fc1ccc(Nc2ncnc3ccc(-c4cnc5[nH]ccc5c4)cc23)cc1Cl", "growth": "57.4% (inactive)"}
{"molecule": "CCc1cnc(=S)n(-c2ccccc2)c1", "growth": "114% (inactive)"}
{"molecule": "C=C1C(=O)O[C@H]2[C@H]1CC/C(COC(=O)NCc1ccccc1OC)=C\\CC[C@@]1(C)O[C@@H]21", "growth": "47.5% (inactive)"}
{"molecule": "CCn1c2ccccc2c2cc(NC(=O)Nc3ccc([N+](=O)[O-])cc3C)ccc21", "growth": "67.2% (inactive)"}
{"molecule": "COc1cc(-c2nn(-c3cccc(NC(=O)Nc4ccc(Cl)c(Cl)c4)c3)cc2-c2ccncc2)ccc1Cl", "growth": "4.96% (active)"}
{"molecule": "Cn1c2ccc(Br)cc2c2c3c(c4c5ccccc5[nH]c4c21)C(=O)N(O)C3=O", "growth": "-79.3% (active)"}
{"molecule": "C=C[C@@H]1C[C@H](O)Cc2c(C)cc(C)cc2N1", "growth": "102% (inactive)"}

Would you be so kind as to report growth for each listed record?
1. COc1ccc(C2=C(c3cc(OC)c(OC)c(OC)c3)C(=O)CC2)cc1
2. COc1ccc(OC)c(C2OC(c3ccc4ccccc4c3O)=NN2C(C)=O)c1 (stereo not drawn)
3. CCN1CCN(CC(=O)N2c3cccc4cccc(c34)N(C(=O)CN3CCN(CC)CC3)C2c2cn(-c3ccccc3)nc2-c2cccc([N+](=O)[O-])c2)CC1

["47.7% (inactive)", "78.6% (inactive)", "-87.6% (active)"]

Look up growth for the entries below, preserving their order.
1. Cc1ccc(S(=O)(=O)NCCNc2nccc(-c3c(-c4ccc(O)cc4)nc4sccn34)n2)cc1
2. CCN(CC)CCOc1ccc(Cl)c(C)c1
3. NC1=NC(SCc2ccccc2CCl)c2ncn(Cc3ccccc3CCl)c2N1 (stereo not drawn)
4. COc1ccc(-c2cnnn2-c2nonc2-n2cccc2)cc1OC
5. Cc1ccc(Cc2c(C=O)nc(N)[nH]c2=O)c2ccccc12

["114% (inactive)", "107% (inactive)", "65.2% (inactive)", "67.8% (inactive)", "104% (inactive)"]

For each of the items listed, what is its growth?
1. O=C(Nc1ccncc1)C(=O)c1cn(S(=O)(=O)c2ccccc2F)c2ccccc12
2. CC(=O)Nc1scc[n+]1Cc1ccccc1

["61.5% (inactive)", "109% (inactive)"]
